So I've got a bunch of variants here, and I need their protein stability index values.
B1: SNX8 (parent)
chain: RMVPALPPKRMLGADREFIEARRR

Variants of: B1
Protocol Notes: protein stability index of a GFP-peptide fusion (GPS, HEK-293T) (PSI 1-6); higher = more stable;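 further: lentivirally expressed fusions sorted by FACS into six bins by GFP to DsRed ratio, PSI derived from sequencing read proportions per bin multiplied by bin number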
Stated Conditions: c terminus: a fixed tail appended
Give bare numbers.

See these solved cases before continuing.
Which protein stability index is listed for RMVPALPPKRYLGADREFIEARRR [M11Y] ? 2.99

Which protein stability index reading was recorded for the variant RMVPALPPKRMHGADREFIEARRR [L12H] ? 4

Would you kindly share the measured protein stability index for RMVHALPPKRMLGADREFIEARRR [P4H] ? 3.09

Any idea what its protein stability index is? The variant is RKVPALPPKRMLGADREFIEARRR [M2K] 4.1

Can you look up the measured protein stability index of RMVPALPPKRMLGADREFIEARRW [R24W] for me? 3.05

# get_value(readout='protein stability index', item= RMVPALPPKRMLGAWREFIEARRR [D15W] ) 2.5

Fill in the blank: the reported protein stability index of RMVPQLPPKRMLGADREFIEARRR [A5Q] is ____. 4.1

Tell me the measured protein stability index of RMVPWLPPKRMLGADREFIEARRR [A5W] , please. 3.06

Could you report protein stability index for every entry in the following list?
1. RVVPALPPKRMLGADREFIEARRR [M2V]
2. RMVPALPPKRMLGADREFIEIRRR [A21I]
3. QMVPALPPKRMLGADREFIEARRR [R1Q]
4. RMVPALPPKRELGADREFIEARRR [M11E]
5. RMQPALPPKRMLGADREFIEARRR [V3Q]
6. RMVPALPPKRMLGADRSFIEARRR [E17S]
7. RMVPALPPKRMLGADREFIEARRP [R24P]

3.58
3.34
3.54
3.91
3.9
3.87
3.53

For every listed record, write down its protein stability index.
1. RMVPALPPFRMLGADREFIEARRR [K9F]
2. RMVPALPPKRMLGADREFIEAPRR [R22P]
3. RMVPALPPKRMLGADREFIEAQRR [R22Q]

[3.83, 3.79, 4.05]

Recorded values, source the supplement of paper PMC10567573.
